Origin of the recorded values: patent US9562053B2

Molecular target: Human GPR120 short form (Homo sapiens)
Construct: expressed in transfected cells
Sequence (Q5NUL3 whole entry): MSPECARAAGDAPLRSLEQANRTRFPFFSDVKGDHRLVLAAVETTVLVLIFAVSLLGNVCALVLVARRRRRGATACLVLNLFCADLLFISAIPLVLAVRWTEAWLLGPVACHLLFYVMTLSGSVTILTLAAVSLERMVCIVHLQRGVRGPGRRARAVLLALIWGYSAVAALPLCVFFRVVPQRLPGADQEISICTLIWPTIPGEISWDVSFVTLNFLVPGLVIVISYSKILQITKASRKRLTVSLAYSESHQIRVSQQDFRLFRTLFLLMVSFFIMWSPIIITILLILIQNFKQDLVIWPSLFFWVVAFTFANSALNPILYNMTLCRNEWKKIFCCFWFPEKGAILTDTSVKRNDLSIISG
Experiment: Human GPR120 in Calcium Flux Assay, Procedure Calcium A (2500 cells/well)
Assay type: cell-based
Description: This in vitro assay serves to assess test compound agonist activity against the short splice variant (SVS with Accession number NM_001195755.1 confirmed by sequencing data) of the GPR120 receptor. […] Upon stimulation, intracellular released Ca^+2 can bind to the dye and alter its fluorescence intensity. This increase in fluorescence signal, and thus the flux in intracellular [Ca^+2], is detected and quantitated by fluorescence imaging using a FLIPR reader. […]
test.readout: EC50
Be sure to follow the number with its unit.

[
  {
    "compound.structure": "Cc1cc2cc(Cl)c(C)c(COc3c(F)cc(CCC(=O)O)cc3F)c2o1",
    "EC50": "207 nM"
  },
  {
    "compound.structure": "CCOc1c(Cl)cc2cc(CC)oc2c1COc1ccc(CCC(=O)O)c(C)c1C",
    "EC50": "67 nM"
  }
]

# per-item lookup of EC50; items listed below
1. CCc1cc2cc(OC(F)F)cc(COc3ccc(CCC(=O)O)c(C)c3C)c2o1
2. Cc1nc2cc(Cl)cc(COc3ccc(CCC(=O)O)c(C)c3C)c2o1
3. CCOc1cc(COc2ccc(CCC(=O)O)c(C)c2C)c2oc(CC)cc2c1
4. Cc1cc2cc3c(c(COc4ccc(CCC(=O)O)c(C)c4C)c2o1)OC(F)(F)O3
5. CCOc1ccc2cc(CC)oc2c1COc1ccc(CCC(=O)O)c(C)c1C
6. Cc1c(CCC(=O)O)ccc(OCc2cc(F)cc3cc(CO)oc23)c1C
7. Cc1nc2c(COc3ccc(CCC(=O)O)c(C)c3C)cc(OC(F)(F)F)cc2s1

Response:
17 nM
131 nM
107 nM
17 nM
77 nM
1320 nM
65 nM
